system: IL-4; test: IL-4 release from stimulated CD4-positive T cells; assay type: cell-based, human; settings: Homo sapiens, CD4 positive; absolute EC50; read-out: Inhibition of IL-4 release, Abs EC50
MEASUREMENT NAME: pEC50
Keep it numeric: pEC50 is minus log10 of the concentration in mol/L.

Considering Nc1nnc(C(c2ccccc2)c2ccccc2)c(N)n1 [Compound 2] , its pEC50 with IL-4 was recorded as 7.21
